ASSAY READOUT: Ki (µM)
Give your result in µM as a bare value.

Given the molecule `CC(C)NC(=O)Cn1c(-c2cccc(Cl)c2)nn(-c2ccc(CCN3CCOCC3)cc2)c1=O` and test system rat anterior pituitary membrane V1B receptor (Rattus norvegicus), the measured Ki is 0.0801

----------
TARGET ENTITY: anterior pituitary V1B receptor
PROCEDURE TEXT: Rat V1B RO study using a tritium labeled V1B receptor ligand
TEST PARAMETERS: in vivo; estimated from RO study of Kamiya et al., 2020
ASSAY READOUT: pEC50
The scale used: pEC50 is minus the common logarithm of the concentration in molar units.

Query `CC(C)NC(=O)Cn1c(-c2cccc(Cl)c2)nn(-c2ccc(CCN3CCOCC3)cc2)c1=O` yields pEC50 of 8.32
